target: GLP-1R (Homo sapiens); experiment: GLP-1R activation: cAMP increase in CHO cells stably expressing GLP-1R; assay type: cell-based; details: cAMP increase, CHO cells stably expressing GLP-1R, 10 point dose response, 30 minutes incubation; read-out: EC50
Sequence (P43220 24-463): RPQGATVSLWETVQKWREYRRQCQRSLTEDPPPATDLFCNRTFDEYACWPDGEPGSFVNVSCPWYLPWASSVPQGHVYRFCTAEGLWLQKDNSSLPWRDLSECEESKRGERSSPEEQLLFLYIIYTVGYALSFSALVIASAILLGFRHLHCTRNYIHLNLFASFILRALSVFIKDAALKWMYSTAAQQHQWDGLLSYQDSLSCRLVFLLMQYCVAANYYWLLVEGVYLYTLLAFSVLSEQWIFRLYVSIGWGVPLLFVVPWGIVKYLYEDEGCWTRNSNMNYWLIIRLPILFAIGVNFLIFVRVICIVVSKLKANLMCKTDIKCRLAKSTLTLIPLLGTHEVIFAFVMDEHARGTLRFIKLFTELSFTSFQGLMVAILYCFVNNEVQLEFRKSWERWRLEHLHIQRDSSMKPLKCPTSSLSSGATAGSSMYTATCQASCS
Assay endpoint: log10 of EC50 (log10 of the value in nM)
log10 EC50, nM

Some solved cases for reference:
>  <Compound>
N#Cc1ccc(COc2nc(-c3ccc(Cc4nc5ccc(C(=O)O)cc5n4C[C@@H]4CCO4)cc3F)ccc2F)c(F)c1

>  <Value>
-0.47

$$$$
>  <Compound>
CN(C)CC1(Cn2c(Cc3ccc(-c4cccc(OCc5ccc(C#N)cc5F)n4)cc3F)nc3ccc(C(=O)O)cc32)CC1

>  <Value>
1.79

$$$$
>  <Compound>
N#Cc1ccc(COc2cccc(-c3ccc(Cc4nc5ccc(C(=O)O)cc5n4CC4(n5ccnn5)CC4)cc3)n2)c(F)c1

>  <Value>
0.39

$$$$
>  <Compound>
CN1C[C@@](C)(Cn2c(Cc3cc(F)c(-c4cccc(OCc5ccc(C#N)cc5F)n4)cc3F)nc3ccc(C(=O)O)cc32)C1=O (racemic)

>  <Value>
0.22

$$$$
>  <Compound>
N#Cc1ccc(COc2cccc(-c3cc(F)c(Cc4nc5ccc(C(=O)O)cc5n4Cc4ccon4)c(F)c3)n2)c(F)c1

>  <Value>
-0.11

$$$$
>  <Compound>
N#Cc1ccc(COc2cccc(-c3cc(F)c(Cc4nc5ccc(C(=O)O)cc5n4CCOCC(F)(F)F)cc3F)n2)c(F)c1

>  <Value>
0.29

$$$$

[ask] Dear colleague, I am looking for the recorded log10 of EC50 of the following compound: COCCn1c(Cc2ccc(-c3cccc(OCc4ccc(C#N)cc4F)n3)cc2-c2ccncc2)nc2ccc(C(=O)O)cc21
[reply] 3.97

[ask] Dear colleague, I am looking for the recorded log10 of EC50 of the following compound: N#Cc1ccc(COc2cccc(-c3cc(F)c(Cc4nc5ccc(C(=O)O)cc5n4CC4(O)CC4)cc3F)n2)c(F)c1
[reply] 0.39
